System: U2OS
assay_explanation: Multiplex assay against U2OS
Type: toxicity, cell-based
assay_context: human, 12 h, 10 µM, compound concentration 10 uM, replicate 1
Overview of reported Population Hoechst High Intensity Objects (%) across a group of compounds:
The response must be a number in % with no trailing unit.

Below, 5 compounds whose answers are already recorded.
CC(C)C[C@H](CO)Nc1nc(S[C@@H](C)c2ccccc2)nc2nc(N)sc12 = 4
Cc1c(Cc2ccc3ccccc3n2)c2cc(F)ccc2n1CC(=O)O = 2
Cc1sc2c(c1C)C(c1ccc(Cl)cc1)=N[C@H](CC(=O)OC(C)(C)C)c1nnc(C)n1-2 = 2
N[C@](CC1c2ccccc2Oc2ccccc21)(C(=O)O)[C@H]1C[C@@H]1C(=O)O = 3
Nc1nc(-c2ccco2)c2cnn(Cc3ccccc3F)c2n1 = 5

Entry Cn1cc(C(=O)OCC2CCN(CCNS(C)(=O)=O)CC2)c2ccccc21 , tested on U2OS, has a reported Population Hoechst High Intensity Objects (%) of 0

Entry Cl.Cl.OCCOCCN1CCN(C(c2ccccc2)c2ccc(Cl)cc2)CC1 (centres undefined) [HYDROXYZINE HYDROCHLORIDE] , tested on U2OS, has a reported Population Hoechst High Intensity Objects (%) of 1

Entry Cc1nn(C)c2nc(NNC(=O)Nc3cc(Cl)nc(Cl)c3)cc(C(C)C)c12 , tested on U2OS, has a reported Population Hoechst High Intensity Objects (%) of 7

Entry COc1c(Nc2ccc(S(C)(=O)=O)nc2C)ncnc1OC1CCN(C(=O)OC(C)C)CC1 , tested on U2OS, has a reported Population Hoechst High Intensity Objects (%) of 8

---

Test system: Fibroblast
assay_explanation: Multiplex assay against human fibroblast
Assay type: toxicity, cell-based
assay_context: 24 h, 1 µM, compound concentration 1 uM, replicate 2
Non-standard residues stand in square brackets, D forms with d. Residues, ends and D or L forms follow the SMILES beside them.
value_kind: Total Cell Count
Hey, just send me the number, nothing else.

O=c1ccc2ccc(OCCCCN3CCN(c4cccc5sccc45)CC3)cc2[nH]1 = 173
Cc1nn(C)c2nc(NNC(=O)Nc3cc(Cl)nc(Cl)c3)cc(C(C)C)c12 = 174
C[C@@H]1CC(=O)Nc2cccc(-c3ccc4c(c3)c(-c3cnn(C)c3)nn4C)c2N1 = 112
S=C(NCCCc1c[nH]cn1)NCCCN(Cc1ccc(Cl)c(Cl)c1)c1ccc(Br)cn1 = 183
O=c1nc2[nH]c3ccccc3nc-2c(=O)[nH]1 = 114
CCCCC[C@H](O)/C=C/[C@H]1[C@H](O)CC(=O)[C@@H]1CCCCCCC(=O)O = 165
CCc1nn2c(C)cc(C)nc2c1Cc1ccc(-c2nnc(C3CCNCC3)o2)cc1 = 177
CCn1c(-c2nc3cc(C(=O)N4CCCC(N)C4)ccc3n2C)cc2ccccc21.Cl (stereo not drawn) = 184
CC(C)C[C@H](CO)Nc1nc(S[C@@H](C)c2ccccc2)nc2nc(N)sc12 = 103
COCCCN1CCC(NC(=O)c2cc(Cl)c(N)c3c2OCC3)CC1 [PRUCALOPRIDE] = 138

Entry N[C@](CC1c2ccccc2Oc2ccccc21)(C(=O)O)[C@H]1C[C@@H]1C(=O)O , tested on Fibroblast, has a reported Total Cell Count of 123

Entry Cc1ccc(OCC(O)C(C)NC(C)C)c2c1CCC2.Cl (stereo not drawn) , tested on Fibroblast, has a reported Total Cell Count of 201

Entry COc1cc(OC2CCN(C(C)=O)CC2)ccc1C(=O)N1CCC(N2C(=O)OCc3ccccc32)CC1 , tested on Fibroblast, has a reported Total Cell Count of 155

Entry Cc1c(Cc2ccc3ccccc3n2)c2cc(F)ccc2n1CC(=O)O , tested on Fibroblast, has a reported Total Cell Count of 142

Entry CC(C)C[C@@H]1NC(=O)[C@@H](C(C)C)NC(=O)[C@@H]2CCCN2C(=O)[C@@H](CC(=O)O)NC(=O)[C@@H](Cc2c[nH]c3ccccc23)NC1=O [BQ-123] (cyclo(L[dW][dD]P[dV])) , tested on Fibroblast, has a reported Total Cell Count of 166

Entry Nc1nc(CC(=O)Nc2ccc(CCNC[C@H](O)c3ccccc3)cc2)cs1 , tested on Fibroblast, has a reported Total Cell Count of 179

Entry CCCCCCNC(=O)Nc1ccc(S(=O)(=O)Nc2ccc(CCNC[C@H](O)COc3ccc(O)cc3)cc2)cc1 , tested on Fibroblast, has a reported Total Cell Count of 176

Entry COc1cc2nc(N3CCN(C(=O)COc4c(OC)cccc4C(C)C)CC3)nc(N)c2cc1OC.Cl.Cl , tested on Fibroblast, has a reported Total Cell Count of 180

---

Tested on: HEK-293T
assay_explanation: Multiplex assay against HEK293T
Type: toxicity, cell-based
assay_context: human, 48 h, 1 µM, compound concentration 1 uM, replicate 2
Overview of reported Population Membrane Permeable-Phenotype (%) across a group of compounds:
The response must be a number in % with no trailing unit.

Below, 2 compounds whose answers are already recorded.
COC(c1ccccc1)(c1ccccc1)[C@H](Oc1nc(C)cc(C)n1)C(=O)O = 0
Cl.Cl.OCCOCCN1CCN(C(c2ccccc2)c2ccc(Cl)cc2)CC1 (centres undefined) [HYDROXYZINE HYDROCHLORIDE] = 0

Entry under test: COc1c(Nc2ccc(S(C)(=O)=O)nc2C)ncnc1OC1CCN(C(=O)OC(C)C)CC1 . Its Population Membrane Permeable-Phenotype (%) was 1

Entry under test: CN1C[C@H](C(=O)N[C@]2(C)O[C@@]3(O)[C@@H]4CCCN4C(=O)[C@H](Cc4ccccc4)N3C2=O)C[C@@H]2c3cccc4[nH]cc(c34)C[C@H]21.CS(=O)(=O)O [DIHYDROERGOTAMINE MESYLATE] . Its Population Membrane Permeable-Phenotype (%) was 0

Entry under test: CCCCC[C@H](O)/C=C/[C@H]1[C@H](O)CC(=O)[C@@H]1CCCCCCC(=O)O . Its Population Membrane Permeable-Phenotype (%) was 0

Entry under test: S=C(NCCCc1c[nH]cn1)NCCCN(Cc1ccc(Cl)c(Cl)c1)c1ccc(Br)cn1 . Its Population Membrane Permeable-Phenotype (%) was 0

Entry under test: CSc1nc(NC2CCCC2)c([N+](=O)[O-])c(NC2CCCC2)n1 . Its Population Membrane Permeable-Phenotype (%) was 0

Entry under test: CN1CCN2c3ccccc3Cc3ccccc3C2C1.Cl (centres undefined) [MIANSERIN HYDROCHLORIDE] . Its Population Membrane Permeable-Phenotype (%) was 0

Entry under test: OCCCNc1cc(-c2ccnc(Nc3cccc(Cl)c3)n2)ccn1 . Its Population Membrane Permeable-Phenotype (%) was 0

---

Tested on: Fibroblast
assay_explanation: Multiplex assay against human fibroblast
Format: toxicity, cell-based
assay_context: 24 h, 1 µM, compound concentration 1 uM, replicate 1
value_kind: Population Mitochondria Different-Phenotype (%)
The response must be a number in % with no trailing unit.

Below, 5 compounds whose answers are already recorded.
Nc1nc(CC(=O)Nc2ccc(CCNC[C@H](O)c3ccccc3)cc2)cs1 = 4
CC(C)(O)C(=O)N1CCN(c2ccc(C(F)(F)F)c(C3=C(c4c[nH]c5ccccc45)C(=O)NC3=O)c2)CC1 = 3
COc1cc2nc(N3CCN(C(=O)c4ccco4)CC3)nc(N)c2cc1OC.Cl [PRAZOSIN HYDROCHLORIDE] = 2
Cc1c(Cc2ccc3ccccc3n2)c2cc(F)ccc2n1CC(=O)O = 2
O=c1nc2[nH]c3ccccc3nc-2c(=O)[nH]1 = 2

Entry under test: CN(C)C/C=C/C(=O)Nc1ccc(C(=O)N2CCCC(Nc3ncc(Cl)c(-c4c[nH]c5ccccc45)n3)C2)cc1 (stereo not drawn) . Its Population Mitochondria Different-Phenotype (%) was 7

Entry under test: Cl.Cl.OCCOCCN1CCN(C(c2ccccc2)c2ccc(Cl)cc2)CC1 (stereo not drawn) [HYDROXYZINE HYDROCHLORIDE] . Its Population Mitochondria Different-Phenotype (%) was 6

Entry under test: CC(C)(C)c1ccc(CSc2cnn(C(C)(C)C)c(=O)c2Cl)cc1 . Its Population Mitochondria Different-Phenotype (%) was 2

---

Overview of reported Population Fragmented Nuclei (%) across a group of compounds:
Test system: Fibroblast
assay_explanation: Multiplex assay against human fibroblast
Assay type: toxicity, cell-based
assay_context: 12 h, 1 µM, compound concentration 1 uM, replicate 2

CCc1nn2c(C)cc(C)nc2c1Cc1ccc(-c2nnc(C3CCNCC3)o2)cc1 = 19%
Nc1nc(CC(=O)Nc2ccc(CCNC[C@H](O)c3ccccc3)cc2)cs1 = 27%

Entry under test: COc1cc(Nc2ncc3c(n2)-c2ccc(Cl)cc2C(c2c(F)cccc2OC)=NC3)ccc1C(=O)O . Its Population Fragmented Nuclei (%) was 18%

Entry under test: CSc1nc(NC2CCCC2)c([N+](=O)[O-])c(NC2CCCC2)n1 . Its Population Fragmented Nuclei (%) was 28%
